Biological target: Glucocorticoid Receptor (GR) (Homo sapiens, UniProt P04150)
Construct: A GAL4-responsive firefly luciferase reporter is the read-out; Some cells also express CD40, which is irrelevant for the free small molecules
Sequence (P04150 524-777 limits assumed): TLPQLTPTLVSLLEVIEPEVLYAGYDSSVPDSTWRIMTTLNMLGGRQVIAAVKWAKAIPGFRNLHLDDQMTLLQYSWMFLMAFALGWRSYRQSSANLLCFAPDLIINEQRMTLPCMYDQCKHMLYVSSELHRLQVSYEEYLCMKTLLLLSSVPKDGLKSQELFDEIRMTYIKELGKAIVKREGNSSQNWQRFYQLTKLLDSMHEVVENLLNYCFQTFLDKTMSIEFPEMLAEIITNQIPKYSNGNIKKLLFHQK
Experiment: GR reporter assay (GR-GAL4 Reporter (Luc)-HEK293 cells, Steady-Glo luciferase)
Conditions: 24 hours, read-out: GR reporter agonist
observed.property: EC50 (nM)

P: C[C@]12C=CC(=O)C=C1[C@@H](F)C[C@H]1[C@@H]3C[C@H]4O[C@@H](C5CCC5)O[C@@]4(C(=O)CO)[C@@]3(C)C[C@H](O)[C@@]12F
Q: C[C@]12C=CC(=O)C=C1CC[C@@H]1[C@@H]2[C@@H](O)C[C@@]2(C)[C@H]1C[C@H]1O[C@@H](c3ccc(Cn4ccnn4)cc3)O[C@]12C(=O)CO
R: C[C@]12C=CC(=O)C=C1[C@@H](F)C[C@H]1[C@@H]3C[C@H]4O[C@@H](C56CC(C5)C6)O[C@@]4(C(=O)CO)[C@@]3(C)C[C@H](O)[C@@]12F
Put these in order: smallest EC50 first, largest last. I would appreciate it if you listed the labels in the requested order.
P, R, Q
(P: 0.68 nM, R: 2.9 nM, Q: 17 nM)

====

Biological target: Glucocorticoid Receptor (GR) (Homo sapiens, UniProt P04150)
Construct: A GAL4-responsive firefly luciferase reporter is the read-out; Some cells also express CD40, which is irrelevant for the free small molecules
Assay: GR reporter assay (GR-GAL4 Reporter (Luc)-HEK293 cells, Steady-Glo luciferase)
Details: 24 hours, read-out: GR reporter agonist
observed.property: EC50 (µM)

Observe how each entry below is paired with its result.
• C[C@]12C=CC(=O)C=C1CC[C@@H]1[C@@H]2[C@@H](O)C[C@@]2(C)[C@H]1C[C@H]1O[C@@H](c3ccc(Cc4c[nH]nn4)cc3)O[C@]12C(=O)CO = 0.0251
• C[C@]12C=CC(=O)C=C1CC[C@H]1[C@@H]3C[C@H]4O[C@@H](c5sccc5F)O[C@@]4(C(=O)CO)[C@@]3(C)C[C@H](O)[C@@]12F [Compound 52a] = 0.00057
• C[C@]12C=CC(=O)C=C1CC[C@@H]1[C@@H]2[C@@H](O)C[C@@]2(C)[C@H]1C[C@H]1O[C@@H](/C=C/c3cccc(N)c3)O[C@]12C(=O)CO = 0.172
• C[C@]12C=CC(=O)C=C1[C@@H](F)C[C@H]1[C@@H]3C[C@H]4O[C@@H](c5sccc5F)O[C@@]4(C(=O)CO)[C@@]3(C)C[C@H](O)[C@@]12F [Compound 30a] = 0.00044
• C[C@]12C=CC(=O)C=C1CC[C@@H]1[C@@H]2[C@@H](O)C[C@@]2(C)[C@H]1C[C@H]1O[C@@H](/C=C/C3CC3)O[C@]12C(=O)CO = 0.0326
• C[C@]12C=CC(=O)C=C1CC[C@H]1[C@@H]3C[C@H]4O[C@@H](C5CCC5)O[C@@]4(C(=O)CO)[C@@]3(C)C[C@H](O)[C@@]12F = 0.0012
• C[C@]12C=CC(=O)C=C1CC[C@@H]1[C@@H]2[C@@H](O)C[C@@]2(C)[C@H]1C[C@H]1O[C@@H](c3ccc4c(c3)OCO4)O[C@]12C(=O)CO = 0.0252
• C[C@]12C=CC(=O)C=C1CC[C@@H]1[C@@H]2[C@@H](O)C[C@@]2(C)[C@H]1C[C@H]1O[C@@H](C3CCC3)O[C@]12C(=O)CO = 0.0049

I: Cn1cc([C@@H]2O[C@@H]3C[C@H]4[C@@H]5CCC6=CC(=O)C=C[C@]6(C)[C@H]5[C@@H](O)C[C@]4(C)[C@]3(C(=O)CO)O2)cn1
II: C[C@]12C=CC(=O)C=C1[C@@H](F)C[C@H]1[C@@H]3C[C@H]4O[C@@H](c5ccc(F)s5)O[C@@]4(C(=O)CO)[C@@]3(C)C[C@H](O)[C@@]12F
III: Cc1nn[nH]c1-c1ccc([C@@H]2O[C@@H]3C[C@H]4[C@@H]5CCC6=CC(=O)C=C[C@]6(C)[C@H]5[C@@H](O)C[C@]4(C)[C@]3(C(=O)CO)O2)cc1
Ordering: ascending EC50. I would appreciate it if you listed the labels in the requested order.
II, III, I
